# Tested on: surinam grass
# ASSAY NOTES: Test B pre/postemergence surinam grass
# Format: in vivo, Brachiaria decumbens
# REPORTED CONDITIONS: Rate 125 g/ha; Preemergence; scale of 0 to 10 where 0 is no effect and 10 is complete control
READOUT TYPE: B. signalgrass plant response rating
Just the number, please, no unit attached.

// known answers, use as guide
STRUCTURE SMILES | TARGET OR TEST SYSTEM | READOUT TYPE | ENDPOINT VALUE
CCN(C(=O)n1oc(=O)n(C)c1=O)C1CCCCC1 | surinam grass | B. signalgrass plant response rating | 0
CC(=O)OCn1c(=O)on(C(=O)N(c2ccc(F)cc2)C(C)C)c1=O | surinam grass | B. signalgrass plant response rating | 0
CC(C)N(C(=O)n1oc(=O)n(CC(C)(C)C)c1=O)c1ccccc1 | surinam grass | B. signalgrass plant response rating | 7

Q: Return B. signalgrass plant response rating for the following compound: CC(Cl)=CCn1c(=O)on(C(=O)N(c2ccc(F)cc2)C(C)C)c1=O
Result: 5

* * *

# System: bedstraw
# ASSAY NOTES: Test B pre/postemergence bedstraw
# Assay type: in vivo, Galium aparine
# REPORTED CONDITIONS: Rate 500 g/ha, Postemergence; scale 0 to 10, 0 no effect, 10 complete control
# Method: […] At the same time, these crop and weed species were also treated with postemergence applications of test chemicals formulated in the same manner. […] Treated plants and controls were maintained in a greenhouse for twelve to sixteen days, after which all species were compared to controls and visually evaluated. […]
READOUT TYPE: Bedstraw plant response rating
Just the number, please, no unit attached.

// known answers, use as guide
MOLECULE | READOUT TYPE | ENDPOINT VALUE
CC(C)N(C(=O)n1oc(=O)n(C(C)c2ccccc2)c1=O)c1ccc(Cl)cc1 (stereo not drawn) [Compound 133] | Bedstraw plant response rating | 7
Cc1cccc(C(C)C)c1-n1c(=O)on(C(=O)N(c2ccccc2)C(C)C)c1=O [Compound 66] | Bedstraw plant response rating | 2
CCN(C(=O)n1oc(=O)n(C)c1=O)C1CCCCC1 [Compound 228] | Bedstraw plant response rating | 2

Q: Return Bedstraw plant response rating for the following molecule: COc1ccccc1Cn1c(=O)on(C(=O)N(c2ccc(F)cc2)C(C)C)c1=O [Compound 143]
Result: 8

Q: Return Bedstraw plant response rating for the following molecule: CCC=CCn1c(=O)on(C(=O)N(c2ccc(F)cc2)C(C)C)c1=O [Compound 286]
Result: 6

Q: Return Bedstraw plant response rating for the following molecule: CC(C)N(C(=O)n1oc(=O)n(C(C)(C)C)c1=O)c1ccccc1 [Compound 129]
Result: 3

* * *

Quick reference: Soybean plant response rating of the listed items.
# Test system: soybean
# ASSAY NOTES: Test B pre/postemergence soybean
# Format: in vivo, Glycine max
# REPORTED CONDITIONS: Preemergence, Rate 62 g/ha; scale of 0 to 10 where 0 is no effect and 10 is complete control
Just the number, please, no unit attached.

MOLECULE | ENDPOINT VALUE
CC(C)N(C(=O)n1oc(=O)n(CC(C)(C)C)c1=O)c1ccccc1 | 0

Q: Return Soybean plant response rating for the following molecule: CC(C)N(C(=O)n1oc(=O)n(C2CCCC(C(F)(F)F)C2)c1=O)c1ccc(F)cc1 (stereo not drawn)
Result: 0

Q: Return Soybean plant response rating for the following molecule: Cc1nc(C)c(-n2c(=O)on(C(=O)N(c3ccccc3)C(C)C)c2=O)s1
Result: 0

* * *

# System: crabgrass
# ASSAY NOTES: Test B pre/postemergence crabgrass
# Type: in vivo, Digitaria sanguinalis
# REPORTED CONDITIONS: Rate 250 g/ha; Postemergence
READOUT TYPE: Plant response rating (0 to 10; 0 is no effect, 10 is complete control), Crabgrass
Just the number, please, no unit attached.

MOLECULE | ENDPOINT VALUE
Cc1nc(C)c(-n2c(=O)on(C(=O)N(c3ccccc3)C(C)C)c2=O)s1 | 0
CC(C)N(C(=O)n1oc(=O)n(CC2CO2)c1=O)c1ccc(F)cc1 (centres unmarked) | 3
CCN(C(=O)n1oc(=O)n(C)c1=O)C1CCCCC1 | 0
COc1nc(OC)nc(N(C(=O)n2oc(=O)n(-c3c(C)cccc3C)c2=O)C(C)C)n1 | 0

Switching to the query record.
Q: Report value only: Plant response rating (0 to 10; 0 is no effect, 10 is complete control), Crabgrass, crabgrass, CCN(Cc1ccncc1)C(=O)n1oc(=O)n(C(C)C)c1=O
Result: 0

* * *

Quick reference: Ducksalad plant response rating (0 to 10 scale, 0 is no effect, 10 is complete control) of the listed items.
# Test system: duck salad
# ASSAY NOTES: Test B flood test duck salad
# Format: in vivo, Heteranthera limosa
# REPORTED CONDITIONS: Rate 125 g/ha; under heading Pre-emergence; flood test species; visual evaluation after twelve to sixteen days
Just the number, please, no unit attached.

// known answers, use as guide
COMPOUND | TARGET OR TEST SYSTEM | ENDPOINT VALUE
C=CCn1c(=O)on(C(=O)N(c2c(C)cccc2C)C(C)COC)c1=O (stereo not drawn) | duck salad | 0
CC(C)N(C(=O)n1oc(=O)n(CC2CCC2)c1=O)c1ccc(F)cc1 | duck salad | 0

Switching to the query record.
Q: Return Ducksalad plant response rating (0 to 10 scale, 0 is no effect, 10 is complete control) for the following compound: CC(C)N(C(=O)n1oc(=O)n(C(CF)CF)c1=O)c1ccc(F)cc1
Result: 0

* * *

Quick reference: Sugarbeets plant response rating of the listed items.
# Tested on: sugar beet
# ASSAY NOTES: Test B pre/postemergence sugar beet
# Assay type: in vivo, Beta vulgaris
# REPORTED CONDITIONS: Postemergence, Rate 125 g/ha; scale 0 to 10, 0 is no effect, 10 is complete control
Just the number, please, no unit attached.

// known answers, use as guide
COMPOUND | TARGET OR TEST SYSTEM | ENDPOINT VALUE
CCOCn1c(=O)on(C(=O)N(c2ccc(Cl)cc2)C(C)C)c1=O [Compound 534] | sugar beet | 0
CC(C)N(C(=O)n1oc(=O)n(CC2=CCCN(C)C2)c1=O)c1ccccc1 [Compound 497] | sugar beet | 0
COCCOCn1c(=O)on(C(=O)N(c2ccc(F)cc2F)C(C)C)c1=O [Compound 505] | sugar beet | 5

Q: Return Sugarbeets plant response rating for the following compound: Cc1noc(C)c1Cn1c(=O)on(C(=O)N(c2ccc(F)cc2F)C(C)C)c1=O [Compound 510]
Result: 4

Q: Return Sugarbeets plant response rating for the following compound: CC(C)C(=O)Cn1c(=O)on(C(=O)N(c2ccc(F)cc2F)C(C)C)c1=O [Compound 486]
Result: 0

* * *

# Tested on: pigweed
# ASSAY NOTES: Test B pre/postemergence pigweed
# Assay type: in vivo, Amaranthus retroflexus
# REPORTED CONDITIONS: Rate 62 g/ha, Postemergence; scale 0 to 10, 0 no effect, 10 complete control
Quick reference: Redroot pigweed plant response rating of the listed items.
Just the number, please, no unit attached.

// known answers, use as guide
STRUCTURE SMILES | ENDPOINT VALUE
CCC=CCn1c(=O)on(C(=O)N(c2ccccc2)C(C)C)c1=O | 0
CC(C)C(=O)Cn1c(=O)on(C(=O)N(c2ccc(F)cc2F)C(C)C)c1=O | 0
CCc1cccc(CC)c1-n1c(=O)on(C(=O)N(c2ccccc2)C(C)C)c1=O | 3

Q: Report value only: Redroot pigweed plant response rating, pigweed, CC(C)N(C(=O)n1oc(=O)n(CC2=CCCN(C)C2)c1=O)c1ccccc1
Result: 0

* * *

Quick reference: Rape plant response rating of the listed items.
# Test system: rape
# ASSAY NOTES: Test B pre/postemergence rape
# Format: in vivo, Brassica napus
# REPORTED CONDITIONS: Preemergence, Rate 500 g/ha; scale 0 to 10 (0 no effect, 10 complete control)
Just the number, please, no unit attached.

STRUCTURE SMILES | Rape plant response rating
CC(C)N(C(=O)n1oc(=O)[nH]c1=O)c1ccc(F)cc1 | 0
COc1ccccc1Cn1c(=O)on(C(=O)N(c2ccc(F)cc2)C(C)C)c1=O | 6
CCN(C(=O)n1oc(=O)n(N(C)c2ccccc2)c1=O)C1CCCCC1 | 0

Q: Report value only: Rape plant response rating, rape, CC(C)N(C(=O)n1oc(=O)n([C@@H](C)c2ccccc2)c1=O)c1ccccc1
Result: 0

Q: Report value only: Rape plant response rating, rape, CC(C)N(C(=O)n1oc(=O)n(C(C)C)c1=O)c1ccc(F)cc1F
Result: 10

* * *

# System: cocklebur
# ASSAY NOTES: Test B pre/postemergence cocklebur
# Assay type: in vivo, Xanthium strumarium
# REPORTED CONDITIONS: Rate 500 g/ha, Preemergence; scale 0 to 10 (0 no effect, 10 complete control)
READOUT TYPE: Cocklebur plant response rating

// known answers, use as guide
STRUCTURE SMILES | ENDPOINT VALUE
CC(C)N(C(=O)n1oc(=O)n(CCN(C)C(=O)c2ccccc2)c1=O)c1ccccc1 | 0
CC(C)N(C(=O)n1oc(=O)n(CCCCl)c1=O)c1ccccc1 | 0
CC(C)N(C(=O)n1oc(=O)n(CC2=NOCCO2)c1=O)c1ccc(F)cc1F | 0
CC(C)N(C(=O)n1oc(=O)n(CC2=NOCCO2)c1=O)c1ccc(F)cc1 | 0

Switching to the query record.
Q: Return Cocklebur plant response rating for the following compound: CCOP(=O)(Cn1c(=O)on(C(=O)N(c2ccc(F)cc2F)C(C)C)c1=O)OCC
Result: 2
